test: Solubility in water / aqueous solubility of HPPs and parent drugs; details: water
READOUT KIND: solubility (µg/mL)
The answer is to be given in µg/mL; state only the numeric part.

Here are 5 compounds together with their reported answers.
O=C(c1ccccc1)c1ccc2n1CCC2C(=O)O (stereo not drawn) [Ketorolac, ketorolac, reference compound] = 100
CC(=O)Oc1ccccc1C(=O)O [Aspirin, acetylsalicylic acid, reference compound] = 10
O=C(O)C1CCc2cc(C3CCCCC3)c(Cl)cc21 (stereo not drawn) = 100
CCc1cccc2c3c([nH]c12)C(CC)(CC(=O)O)OCC3 (stereo not drawn) = 100
O=C(O)c1cc(-c2ccc(F)cc2F)ccc1O [Diflunisal, 5-(2,4-difluorophenyl) salicylic acid, reference compound] = 50

**Q:** Recorded solubility for CC(C(=O)O)c1ccc2oc(-c3ccc(Cl)cc3)nc2c1 (stereo not drawn) , please?
**A:** 100

**Q:** Item C=CCOc1ccc(CC(=O)O)cc1Cl [Alclofenac, alclofenac, reference compound] has what recorded solubility?
**A:** 100
